Give EC50 for every item shown.
Test system: Rhinovirus
Assay: Rhinovirus antiviral assay (CPE inhibition, neutral red uptake, virus yield)
Type: cell-based
Conditions: Enterovirus; CPE inhibition; read-out: Antiviral Activities (EC50) Rhinovirus (CPE)
One number for each entry, in mg/L.

The following compounds have reported results that may help.
# compound, EC50 / mg/L
records = [
    ("CCCc1cc(=O)oc2c3c(c4c(c12)OC(C)(C)[C@H](O)[C@H]4OC(=O)c1cccc(Cl)c1)O[C@H](C)[C@@H](C)C3=O", 0.1),
    ("CCCc1cc(=O)oc2cc(O)c(C(=O)CC)c(O)c12", 2),
    ("CCCc1cc(=O)oc2c(C(=O)C(C)(O)C(C)O)c(O)c3c(c12)OC(C)(C)C=C3 (stereo not shown)", 0.5),
]

Now consider a different compound.
Exercise: I have this compound here, CCC/C(=C/C(=O)OC)c1c(O)c2c(c3c1OC(C)(C)[C@H](O)[C@H]3O)O[C@H](C)[C@@H](C)[C@@H]2O , and I need its recorded EC50.
Solution: 20

---

Test system: Rhinovirus
Assay: Rhinovirus antiviral assay (CPE inhibition, neutral red uptake, virus yield)
Type: cell-based
Conditions: Enterovirus; CPE inhibition; read-out: Antiviral Activities (EC50) Rhinovirus (CPE)
Give EC50 for every item shown.
Numbers only, in µg/mL.

# compound, system, attribute.measured, test.result
data = [
    ("CCCc1cc(=O)oc2c3c(c4c(c12)OC(C)(C)C(O)C4O)O[C@H](C)[C@@H](C)[C@@H]3O (stereo partly drawn)", "Rhinovirus", "EC50", 10),
    ("CCCc1cc(=O)oc2cc(OS(=O)(=O)c3ccc(C)cc3)cc(OS(=O)(=O)c3ccc(C)cc3)c12", "Rhinovirus", "EC50", 2),
    ("CCCc1cc(=O)oc2cc(OS(=O)(=O)c3ccc(C)cc3)cc(O)c12", "Rhinovirus", "EC50", 1),
    ("CCCc1cc(=O)oc2c(C(=O)CC)c(O)cc(O)c12", "Rhinovirus", "EC50", 30),
    ("CCCc1cc(=O)oc2cc(OCC(C)(C)C(=O)O)c3c(c12)OC(C)(C)C=C3", "Rhinovirus", "EC50", 10),
]

Now consider a different compound.
Exercise: I have this compound here, CCCc1cc(=O)oc2c3c(c4c(c12)OC(C)(C)[C@H](O)[C@H]4O)O[C@H](C)[C@@H](C)[C@@H]3O , and I need its recorded EC50.
Solution: 20

---

Test system: HBV
Test: HBV replication in cultures of 2.2.15 cells (HBV DNA blot hybridization)
Assay type: cell-based
Settings: Hepatitis B virus; read-out: Antiviral Activities (EC50) HBV
Give EC50 for every item shown.

The following molecules have reported results that may help.
# molecule, test.result
data = [
    ("CCCc1cc(=O)oc2c3c(c4c(c12)OC(C)(C)[C@H](O)[C@H]4O)O[C@H](C)[C@@H](C)[C@@H]3O", "> 4 µg/mL"),
    ("CCCc1cc(=O)oc2c(C(=O)CC)c(O)c3c(c12)OC(C)(C)C=C3", "> 3 µg/mL"),
    ("CCCc1cc(=O)oc2cc(O)c(C(=O)CC)c(O)c12", "1 µg/mL"),
    ("CCCc1cc(=O)oc2cc(OS(=O)(=O)c3ccc(C)cc3)cc(O)c12", "2.1 µg/mL"),
]

Now consider a different molecule.
Exercise: I have this molecule here, CCCc1cc(=O)oc2c(C(=O)C(C)(O)C(C)O)c(O)c3c(c12)OC(C)(C)C=C3 (centres unmarked) , and I need its recorded EC50.
Solution: > 4 µg/mL
